meta.source: PubChem BioAssay (NCI)

Readings of GI50 for the listed compounds
system: CCRF-CEM leukemia; assay: NCI tumour cell line growth inhibition, 48 h

compound: C=C(C)[C@@H]1CC[C@]2(C(=O)OC)CC[C@]3(C)[C@H](CC[C@@H]4[C@@]5(C)CC[C@H](N)C(C)(C)[C@@H]5CC[C@]43C)[C@@H]12
assay.target: CCRF-CEM leukemia
GI50: 1.8 µM

compound: C=C1CC[C@@H]2[C@]3(C)COC(c4cn[nH]c4-c4ccccc4)O[C@@H]3CC[C@@]2(C)[C@@H]1C/C=C1/C(=O)OCC1O (some centres undefined)
assay.target: CCRF-CEM leukemia
GI50: 4.83 µM

compound: COc1ccc2[nH]c(O)c(N=NC(=O)COc3ccc(NC(=O)Nc4ccccc4)cc3)c2c1
assay.target: CCRF-CEM leukemia
GI50: 33.1 µM

compound: O=c1[nH]n(C(=S)N/N=C/c2ccccc2Cl)c(=O)c2ccccc12
assay.target: CCRF-CEM leukemia
GI50: 2.29 µM
